# cytotoxicity at 70.5 h values compiled below
assay method text: Human HepG2 cell viability assay in 384 well format
Type: toxicity, cell-based
Design: dose 125 nL, time 70.5 hour; concentration not given beside the values
settings: HepG2 cells, read-out: Inhibition

{"columns": ["molecule", "units symbol", "cytotoxicity at 70.5 h"],
 "data": [
  ["O=S1(=O)NCC2(CCN(Cc3ccc(Cl)s3)C2)Oc2ncccc21 (stereo unspecified)", "%", 17.2],
  ["Cc1ncsc1CN1CCO[C@H]2[C@H](Oc3ccccn3)CC[C@@H]21", "%", -1.48],
  ["O=C(c1ccc[nH]1)N1CCN(CC2CCOc3ccccc3C2)CC1 (stereo unspecified)", "%", 16.4],
  ["O=C1C[C@H]2[C@@H](CCN2C(=O)Cc2cccs2)N1CC1CC1", "%", -13.5],
  ["CCOCC1CN(C(=O)c2ccnnc2)Cc2cnn(C)c21 (stereo unspecified)", "%", -4.89],
  ["O=C(c1ncc[nH]1)N1CCC(n2cc(-c3cccc(Cl)c3)nn2)CC1", "%", 8.61],
  ["O=c1[nH]c(COc2cccc(F)c2)nc2c1CCNC2", "%", -17],
  ["Cn1cnc(CN2Cc3nccn3CC2c2ccccc2)c1 (stereo unspecified)", "%", -7.94],
  ["Cc1ccc(S(=O)(=O)c2ncccc2CN2CCOCC2)cc1", "%", -17.9],
  ["CCc1nnc2n1CC(CNCc1nc(-c3ccsc3)no1)CC2 (stereo unspecified)", "%", -4.57],
  ["CN(C)C(=O)N1C[C@@H](C(=O)NCc2ccco2)C[C@H]2OCC[C@H]21", "%", -4.06]
]}

Value source: ChEMBL document CHEMBL3507680
